system: BT-474; experiment: normalised response (% of control), CellTox Green; higher = less cell death (100 = DMSO, 0 = benzethonium chloride kill control); conditions: incubation time: 72 h
Reported normalised response by item:
# value in %; strip the unit string

Reference set (2 entries):
S=c1[nH]cnc2nc[nH]c12 [Mercaptopurine] (100 nM); 91.2
C[C@]1(c2nc3c(C(N)=O)cccc3[nH]2)CCCN1 [Veliparib] (10000 nM); 96.5

Continue with the compound presented below.
Bench note: what normalised response did Cc1ccc(F)c(NC(=O)Nc2ccc(-c3cccc4[nH]nc(N)c34)cc2)c1 [Linifanib] (100 nM) show?
101

----------
Reported normalised viability by item:
tested on: MDA-MB-231; assay: normalised viability (% of control), CellTiter-Blue; higher = more viable cells (about 100 = DMSO control); details: 10 nM; incubation time: 72 h
# value in %; strip the unit string

Reference set (2 entries):
C=CCNC1=C2C[C@@H](C)C[C@H](OC)[C@H](O)[C@@H](C)/C=C(\C)[C@H](OC(N)=O)[C@@H](OC)/C=C\C=C(/C)C(=O)NC(=CC1=O)C2=O [Tanespimycin]; 92.5
CN(C)C/C=C/C(=O)Nc1cc2c(Nc3ccc(F)c(Cl)c3)ncnc2cc1O[C@H]1CCOC1 [Afatinib]; 89.1

Continue with the compound presented below.
Bench note: what normalised viability did COc1cccc2cc(-c3nc([C@H]4CC[C@H](C(=O)O)CC4)n4ncnc(N)c34)[nH]c12 [OSI-027] show?
87.4

----------
Reported normalised response by item:
tested on: CAL-51; experiment: normalised response (% of control), CellTox Green; higher = less cell death (100 = DMSO, 0 = benzethonium chloride kill control); conditions: incubation time: 72 h
# value in %; strip the unit string

Reference set (4 entries):
COc1cccc2cc(-c3nc([C@H]4CC[C@H](C(=O)O)CC4)n4ncnc(N)c34)[nH]c12 [OSI-027] (10000 nM); 94.5
Nc1nc(Cl)nc2c1ncn2[C@H]1C[C@H](O)[C@@H](CO)O1 [Cladribine] (1000 nM); 107
Cc1ccc(F)c(NC(=O)Nc2ccc(-c3cccc4[nH]nc(N)c34)cc2)c1 [Linifanib] (100 nM); 101
COc1cc(Nc2ncc3c(n2)-c2ccc(Cl)cc2C(c2c(F)cccc2OC)=NC3)ccc1C(=O)O [Alisertib] (100 nM); 27.8

Continue with the compound presented below.
Bench note: what normalised response did COc1cccc2cc(-c3nc([C@H]4CC[C@H](C(=O)O)CC4)n4ncnc(N)c34)[nH]c12 [OSI-027] (1000 nM) show?
104

----------
tested on: BT-549; assay: normalised response (% of control), CellTiter-Glo; higher = more viable cells (100 = DMSO, 0 = benzethonium chloride kill control); details: incubation time: 72 h
Metric: normalised response (%)
# value in %; strip the unit string

Reference set (5 entries):
CN1CCC(COc2cnc(-c3cccc(Cn4nc(-c5cccc(C#N)c5)ccc4=O)c3)nc2)CC1 (0.1 nM); 95.1
N#CC[C@H](C1CCCC1)n1cc(-c2ncnc3[nH]ccc23)cn1 [Ruxolitinib] (10 nM); 98.3
CC[C@]1(O)C[C@@H]2CN(CCc3c([nH]c4ccccc34)[C@@](C(=O)OC)(c3cc4c(cc3OC)N(C)[C@H]3[C@@](O)(C(=O)OC)[C@H](OC(C)=O)[C@]5(CC)C=CCN6CC[C@]43[C@@H]65)C2)C1 [Vinblastine] (100 nM); 35.6
N#CC[C@H](C1CCCC1)n1cc(-c2ncnc3[nH]ccc23)cn1 [Ruxolitinib] (1 nM); 102
CN1CC[C@H](c2c(O)cc(O)c3c(=O)cc(-c4ccccc4Cl)oc23)[C@H](O)C1 [Alvocidib] (10 nM); 102

Continue with the compound presented below.
Bench note: what normalised response did Cc1c2oc3c(C)ccc(C(=O)N[C@@H]4C(=O)N[C@H](C(C)C)C(=O)N5CCC[C@H]5C(=O)N(C)CC(=O)N(C)[C@@H](C(C)C)C(=O)O[C@@H]4C)c3nc-2c(C(=O)N[C@@H]2C(=O)N[C@H](C(C)C)C(=O)N3CCC[C@H]3C(=O)N(C)CC(=O)N(C)[C@@H](C(C)C)C(=O)O[C@@H]2C)c(N)c1=O [Dactinomycin] (0.1 nM) show?
99.8

----------
system: BT-549; test: normalised response (% of control), CellTox Green; higher = less cell death (100 = DMSO, 0 = benzethonium chloride kill control); details: incubation time: 72 h
Metric: normalised response (%)
# value in %; strip the unit string

Reference set (2 entries):
CN(C)C/C=C/C(=O)Nc1cc2c(Nc3ccc(F)c(Cl)c3)ncnc2cc1O[C@H]1CCOC1 [Afatinib] (1000 nM); 107
Cc1ccc(F)c(NC(=O)Nc2ccc(-c3cccc4[nH]nc(N)c34)cc2)c1 [Linifanib] (10 nM); 96.7

Continue with the compound presented below.
Bench note: what normalised response did COc1cccc2cc(-c3nc([C@H]4CC[C@H](C(=O)O)CC4)n4ncnc(N)c34)[nH]c12 [OSI-027] (10000 nM) show?
113

----------
Reported normalised response by item:
test system: HDQ-P1; assay: normalised response (% of control), CellTiter-Glo; higher = more viable cells (100 = DMSO, 0 = benzethonium chloride kill control); conditions: incubation time: 72 h
# value in %; strip the unit string

Reference set (5 entries):
N#CC[C@H](C1CCCC1)n1cc(-c2ncnc3[nH]ccc23)cn1 [Ruxolitinib] (10 nM); 94
COc1cccc2cc(-c3nc([C@H]4CC[C@H](C(=O)O)CC4)n4ncnc(N)c34)[nH]c12 [OSI-027] (10 nM); 100
S=c1[nH]cnc2nc[nH]c12 [Mercaptopurine] (10 nM); 97.1
Cc1ccc(F)c(NC(=O)Nc2ccc(-c3cccc4[nH]nc(N)c34)cc2)c1 [Linifanib] (100 nM); 103
S=c1[nH]cnc2nc[nH]c12 [Mercaptopurine] (1000 nM); 47.7

Continue with the compound presented below.
Bench note: what normalised response did N#CC[C@H](C1CCCC1)n1cc(-c2ncnc3[nH]ccc23)cn1 [Ruxolitinib] (1000 nM) show?
98.2

----------
tested on: MDA-MB-231; experiment: normalised response (% of control), CellTox Green; higher = less cell death (100 = DMSO, 0 = benzethonium chloride kill control); conditions: incubation time: 72 h
Reported normalised response by item:
# value in %; strip the unit string

CO[C@H]1C[C@@H]2CC[C@@H](C)[C@@](O)(O2)C(=O)C(=O)N2CCCC[C@H]2C(=O)O[C@H]([C@H](C)C[C@@H]2CC[C@@H](OC(=O)C(C)(CO)CO)[C@H](OC)C2)CC(=O)[C@H](C)/C=C(\C)[C@@H](O)[C@@H](OC)C(=O)[C@H](C)C[C@H](C)/C=C/C=C/C=C/1C [Temsirolimus] (100 nM); 123
Nc1nc(Cl)nc2c1ncn2[C@H]1C[C@H](O)[C@@H](CO)O1 [Cladribine] (1000 nM); 86.3
COc1cccc2cc(-c3nc([C@H]4CC[C@H](C(=O)O)CC4)n4ncnc(N)c34)[nH]c12 [OSI-027] (10000 nM); 130
COc1cccc2cc(-c3nc([C@H]4CC[C@H](C(=O)O)CC4)n4ncnc(N)c34)[nH]c12 [OSI-027] (100 nM); 76.7

Bench note: what normalised response did COc1cccc2cc(-c3nc([C@H]4CC[C@H](C(=O)O)CC4)n4ncnc(N)c34)[nH]c12 [OSI-027] (1000 nM) show?
65

Bench note: what normalised response did N#CC[C@H](C1CCCC1)n1cc(-c2ncnc3[nH]ccc23)cn1 [Ruxolitinib] (1000 nM) show?
107

----------
Reported normalised viability by item:
tested on: CAL-85-1; assay: normalised viability (% of control), CellTiter-Blue; higher = more viable cells (about 100 = DMSO control); conditions: incubation time: 72 h
# value in %; strip the unit string

Reference set (3 entries):
CS(=O)(=O)c1ccc(C(=O)Nc2ccc(Cl)c(-c3ccccn3)c2)c(Cl)c1 [Vismodegib] (1000 nM); 97.1
C=CCNC1=C2C[C@@H](C)C[C@H](OC)[C@H](O)[C@@H](C)/C=C(\C)[C@H](OC(N)=O)[C@@H](OC)/C=C\C=C(/C)C(=O)NC(=CC1=O)C2=O [Tanespimycin] (1000 nM); 24.7
CN1CC[C@H](c2c(O)cc(O)c3c(=O)cc(-c4ccccc4Cl)oc23)[C@H](O)C1 [Alvocidib] (1000 nM); 1.95

Bench note: what normalised viability did Cc1ccc(F)c(NC(=O)Nc2ccc(-c3cccc4[nH]nc(N)c34)cc2)c1 [Linifanib] (100 nM) show?
87.4

----------
tested on: MFM-223; assay: normalised viability (% of control), CellTiter-Blue; higher = more viable cells (about 100 = DMSO control); conditions: 1000 nM; incubation time: 72 h
Reported normalised viability by item:
# value in %; strip the unit string

Reference set (3 entries):
CN(C)C/C=C/C(=O)Nc1cc2c(Nc3ccc(F)c(Cl)c3)ncnc2cc1O[C@H]1CCOC1; 83.4
CN1CCC(COc2cnc(-c3cccc(Cn4nc(-c5cccc(C#N)c5)ccc4=O)c3)nc2)CC1; 119
Cc1c2oc3c(C)ccc(C(=O)N[C@@H]4C(=O)N[C@H](C(C)C)C(=O)N5CCC[C@H]5C(=O)N(C)CC(=O)N(C)[C@@H](C(C)C)C(=O)O[C@@H]4C)c3nc-2c(C(=O)N[C@@H]2C(=O)N[C@H](C(C)C)C(=O)N3CCC[C@H]3C(=O)N(C)CC(=O)N(C)[C@@H](C(C)C)C(=O)O[C@@H]2C)c(N)c1=O; 10.4

Bench note: what normalised viability did `C=CCNC1=C2C[C@@H](C)C[C@H](OC)[C@H](O)[C@@H](C)/C=C(\C)[C@H](OC(N)=O)[C@@H](OC)/C=C\C=C(/C)C(=O)NC(=CC1=O)C2=O` show?
23.9

Bench note: what normalised viability did `CC[C@]1(O)C[C@@H]2CN(CCc3c([nH]c4ccccc34)[C@@](C(=O)OC)(c3cc4c(cc3OC)N(C)[C@H]3[C@@](O)(C(=O)OC)[C@H](OC(C)=O)[C@]5(CC)C=CCN6CC[C@]43[C@@H]65)C2)C1` show?
24.9

Bench note: what normalised viability did `CS(=O)(=O)c1ccc(C(=O)Nc2ccc(Cl)c(-c3ccccn3)c2)c(Cl)c1` show?
108

Bench note: what normalised viability did `CN1CC[C@H](c2c(O)cc(O)c3c(=O)cc(-c4ccccc4Cl)oc23)[C@H](O)C1` show?
8.79
